# Test System: ~100 representative kinases (Homo sapiens, UniProt P15735)
# Construct: Recombinant protein kinase domains with a concentration of 2 μM
# Sequence (P15735 whole entry, the tested form may be a part): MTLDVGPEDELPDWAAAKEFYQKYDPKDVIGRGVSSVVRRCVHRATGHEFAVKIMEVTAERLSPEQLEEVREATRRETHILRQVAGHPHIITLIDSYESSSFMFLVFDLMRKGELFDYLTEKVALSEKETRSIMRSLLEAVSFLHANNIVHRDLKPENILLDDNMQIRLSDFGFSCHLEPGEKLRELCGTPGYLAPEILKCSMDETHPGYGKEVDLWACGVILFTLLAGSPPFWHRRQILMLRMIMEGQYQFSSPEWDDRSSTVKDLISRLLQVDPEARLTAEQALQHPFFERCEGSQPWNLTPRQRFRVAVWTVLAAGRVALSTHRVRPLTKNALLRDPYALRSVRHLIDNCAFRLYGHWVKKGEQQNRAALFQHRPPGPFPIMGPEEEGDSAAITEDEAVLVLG
# Experiment: DSF 100 kinase selectivity screen;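 also: compound tested at 20 µM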
# Assay type: binding
# Condition Info: protein PHKG2; average of three replicates
Recorded Metric: dTm

Compound	Test System	Result
Cc1cc(NC(=O)C2(C(=O)Nc3cccc(-c4c[nH]c5ncnc(N6CCOCC6)c45)c3)CC2)ccc1F [Compound 20]	~100 representative kinases (Homo sapiens, UniProt P15735)	2.79 K
O=C(Nc1cccc(-c2c[nH]c3ncnc(N4CCOCC4)c23)c1)C1(C(=O)Nc2ccc(F)c(Br)c2)CC1 [Compound 19]	~100 representative kinases (Homo sapiens, UniProt P15735)	1.52 K
CCSc1nc(NC)c2c(-c3cccc(NC(=O)Nc4cc(C(C)(C)C)nn4-c4ccc(C)cc4)c3)c[nH]c2n1 [Compound 32]	~100 representative kinases (Homo sapiens, UniProt P15735)	-0.14 K
COc1ccc(NC(=O)C2(C(=O)Nc3cccc(-c4c[nH]c5ncnc(N6CCOCC6)c45)c3)CC2)cc1 [Compound 16]	~100 representative kinases (Homo sapiens, UniProt P15735)	-0.08 K
Cn1cc(-c2c[nH]c3ncnc(N4CCOCC4)c23)cc1C#N [PFE-360]	~100 representative kinases (Homo sapiens, UniProt P15735)	1.53 K
